Cited source: PubChem BioAssay (NCI)

- System: HOP-92 NSCLC
- experiment.summary: NCI tumour cell line growth inhibition, 48 h

{"compound": "O=[N+]([O-])c1ccc(Oc2nc(Nc3ccc(O[C@H]4CO[C@H]5[C@@H]4OC[C@@H]5O)c(Cl)c3)ncc2F)c(Cl)c1", "GI50": "0.807 µM"}
{"compound": "Cc1ccc(-c2c3c(nn2-c2ccc(S(N)(=O)=O)cc2)-c2ccccc2C3)cc1", "GI50": "13.9 µM"}
{"compound": "CC1=CC(=O)C(C(C)C)=CC1=Nc1cc(Br)c(O)c(Br)c1", "GI50": "11.5 µM"}
{"compound": "Oc1ccc(O)c(-c2cc(-c3ccc(Cl)cc3)nn2-c2ccccc2)c1", "GI50": "2.71 µM"}
{"compound": "N#Cc1c(Br)n(C2OC(CO)C(O)C2O)c2ncnc(N)c12 (stereo not given)", "GI50": "0.738 µM"}
